Listed next: entries and their corresponding % Relative Immunoreactivity.
# Test system: antibodies to HCV
# TEST DESCRIPTION: Peptide ELISA for relative immunoreactivity, 8 member HCV serum panel (Panel I)
# Format: binding, human
# RECORDED CONDITIONS: NS-3 peptides (Tables 4B-4D), relative to pep3 (279A)
METRIC NAME: % Relative Immunoreactivity (%)

# MOLECULE, METRIC NAME, VALUE
rows = [
    ("GYKVLVLNPSVAATLGFGAYMSKAHGIDPNIRTGVRTITTGSPITYSTYGKFLADGGCSGGAYDIIICDECHSTDATSILGIGTVLDQAETAGARLVVLATATPPGSVTVPHPNIEEVAL (peptide) GYKVLVLNPSVAATLGFGAYMSKAHGIDPNIRTGVRTITTGSPITYSTYGKFLADGGCSGGAYDIIICDECHSTDATSILGIGTVLDQAETAGARLVVLATATPPGSVTVPHPNIEEVAL", "% Relative Immunoreactivity", 2.8),
    ("SVAATLGFGAYMSKAHGIDPNIRTGVRTITTGSPITYSTYGKFLADGGCSGGAYDIIICDECHSTDAT (peptide) SVAATLGFGAYMSKAHGIDPNIRTGVRTITTGSPITYSTYGKFLADGGCSGGAYDIIICDECHSTDAT", "% Relative Immunoreactivity", 4.7),
    ("LVLNPSVAATLGFGAYMSKAHGIDPNIRTGVRTITTGSPITYSTYGKFLADGGCSGGAYDIIICDECHS (peptide) LVLNPSVAATLGFGAYMSKAHGIDPNIRTGVRTITTGSPITYSTYGKFLADGGCSGGAYDIIICDECHS", "% Relative Immunoreactivity", 11.1),
]
